# tested-on: serotonin 1A receptor (Rattus norvegicus)
# Construct: To the receptor fraction of the hippocampus were added a test compound and 0.5 nM of [^3H]; 8-hydroxy-dipropylaminotetralin; from tissue; host or cells: rat hippocampus membrane fraction
# Sequence (P19327 whole entry): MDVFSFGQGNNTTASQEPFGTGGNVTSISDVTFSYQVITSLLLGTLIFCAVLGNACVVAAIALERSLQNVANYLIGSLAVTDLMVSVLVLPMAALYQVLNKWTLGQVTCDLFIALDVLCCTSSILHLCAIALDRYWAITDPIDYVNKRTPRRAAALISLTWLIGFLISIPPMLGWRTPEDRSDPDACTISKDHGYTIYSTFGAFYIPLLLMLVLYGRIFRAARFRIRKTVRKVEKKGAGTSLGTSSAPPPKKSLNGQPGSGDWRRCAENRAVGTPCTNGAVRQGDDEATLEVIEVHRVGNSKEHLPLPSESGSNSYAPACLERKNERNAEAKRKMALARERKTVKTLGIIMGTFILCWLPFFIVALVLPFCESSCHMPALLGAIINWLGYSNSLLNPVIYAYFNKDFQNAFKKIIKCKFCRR
# test-description: Binding test on [3H] 8-hydroxy-dipropylaminotetralin, hippocampus receptor fraction
# Parameters: species or system SD rats
# measurement-context: rat hippocampus receptor fraction, 0.5 nM [3H] 8-OH-DPAT, room temperature 30 min; read-out: 5HT1
Counter-ions that a name gives are not always drawn.
attribute-measured: Ki (nM)

I. CCN1CCN(c2nc(-c3ccc([C@@H]4C[C@@H](O)CCO4)cc3)cc3ccccc23)CC1 (relative stereo) [Example 402, Dihydrochloride]
II. CCN1CCN(c2nc(-c3ccc(C(O)CC(C)C)cc3)cc3ccsc23)CC1 (stereo not shown) [Example 255, Dihydrochloride]
Looking at recorded values for Ki, does I or II come in lower? The response must carry the label of the picked entry.
I

P. CCN1CCN(c2nc(-c3csc(CO)c3)cc3ccccc23)CC1 [Example 161, dihydrochloride]
Q. CCN1CCN(c2nc(-c3ccc(O[C@@H](C)CO)cc3)cc3ccsc23)CC1 [Example 438, dihydrochloride]
Looking at recorded values for Ki, does P or Q come in lower? The response must carry the label of the picked entry.
P
(P: 10.7 nM, Q: 62.9 nM)
